Overview of reported kon across a group of binders:
# Target Entity: T1, human BCMA-Fc/His (1-51) (human, UniProt Q02223 1-51)
# T1 construct: also called recombinant human BCMA-Fc/His; recombinant human BCMA-His (Sino Biological Inc.); not shown: Fc region; C-terminal His tag
# T1 sequence: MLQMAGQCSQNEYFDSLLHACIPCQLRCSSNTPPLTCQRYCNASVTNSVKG
# Assay Overview: BLI (Octet), antigen on Ni-NTA biosensor, IgG in solution
Observed Property: kon (M⁻¹ s⁻¹)

Binder	Observed Property	Measured
anti-BCMA IgG antibody 4H9 (antibody, V domains shown) VH: EVQLLESGGGLVQPGGSLRLSCAASGFTFSGYSMSWVRQAPGKGLEWVSSIYHTGYTYYNPSLKSRFTISRDNSKNTLYLQMNSLRAEDTAVYYCARYKSGAFDIWGQGTLVTVSS VL: EIVLTQSPGTLSLSPGERATLSCRASQSVSRNLAWYQQKPGQAPRLLIYGVSSRATGIPDRFSGSGSGTDFTLTISRLEPEDFAVYYCQQYGSSPPTFGQGTKVEIKR	kon	1.38e+06
anti-BCMA IgG antibody 2C6 (antibody, V domains shown) VH: EVQLLESGGGLVQPGGSLRLSCAASGFTFSNYGMSWVRQAPGKGLEWVSSIDYNGSTYYNPSLKSRFTISRDNSKNTLYLQMNSLRAEDTAVYYCAKEHGLFDSWGQGTLVTVSS VL: EIVLTQSPGTLSLSPGERATLSCRVSQSISSYLNWYQQKPGQAPRLLIYDASTRAIGIPDRFSGSGSGTDFTLTISRLEPEDFAVYYCQQVNSYPITFGQGTKVEIKR	kon	1.09e+06
anti-BCMA IgG antibody B58 (antibody, V domains shown, also called B58 antibody) VH: EVQLLESGGGLVQPGGSLRLSCAASGFTFSNYDMSWVRQAPGKGLEWVSWIYPSDSSIYYADSVKGRFTISRDNSKNTLYLQMNSLRAEDTAVYYCARGPFANKYRQFDYWGQGTLVTVSS VL: QSVLTQPPSASGTPGQRVTISCSGSSSNIGSNSVSWYQQLPGTAPKLLIYADSKRPSGVPDRFSGSKSGTSASLAISGLRSEDEADYYCGSWDYSLSGYVFGGGTKLTVL	kon	735000
anti-BCMA IgG antibody 5B5 (antibody, V domains shown, also called 5B5 antibody) VH: EVQLLESGGGLVQPGGSLRLSCAASGFTFSGHYWSWVRQAPGKGLEWVSTVSGSGGDTFYADSVKGRFTISRDNSKNTLYLQMNSLRAEDTAVYYCARGHSVMDVWGQGTLVTVSS VL: EIVLTQSPGTLSLSPGERATLSCRASQGIDSYVAWYQQKPGQAPRLLIYDASLRATGIPDRFSGSGSGTDFTLTISRLEPEDFAVYYCQQYNSWPITFGQGTKLEIKR	kon	1.24e+06
anti-BCMA IgG antibody 5A6 (antibody, V domains shown, also called 5A6 WT; 5A6 antibody) VH: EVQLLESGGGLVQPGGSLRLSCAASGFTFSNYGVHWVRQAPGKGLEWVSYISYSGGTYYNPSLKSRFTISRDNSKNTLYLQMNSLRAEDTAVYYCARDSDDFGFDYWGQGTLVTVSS VL: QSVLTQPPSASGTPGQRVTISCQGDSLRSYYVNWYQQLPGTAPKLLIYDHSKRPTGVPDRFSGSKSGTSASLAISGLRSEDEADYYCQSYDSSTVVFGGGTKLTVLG	kon	509000
anti-BCMA IgG antibody 2G (antibody, V domains shown) VH: EVQLVESGGGLVQPGGSLRLSCAASGFTFSNYAMSWVRQAPGKGLEWVSAISSSGSTIYYADSVKGRFTISRDNSKNTLYLQMNSLRAEDTAVYYCAKAGYYGSIYAFDYWGQGTLVTVSS VL: DIQMTQSPSSLSASVGDRVTITCRASQSISSYLNWYQQKPGKAPKLLIYATSRLQSGVPSRFSGSGSGTDFTLTISSLQPEDFATYYCQQSSSFPWTFGQGTKVEIKR	kon	720000
anti-BCMA IgG antibody 5D5 (antibody, V domains shown, also called 5D5 WT; 5D5 antibody) VH: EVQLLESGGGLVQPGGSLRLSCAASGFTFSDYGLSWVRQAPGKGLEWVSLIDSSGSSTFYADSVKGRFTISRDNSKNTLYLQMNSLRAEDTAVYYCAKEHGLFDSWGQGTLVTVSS VL: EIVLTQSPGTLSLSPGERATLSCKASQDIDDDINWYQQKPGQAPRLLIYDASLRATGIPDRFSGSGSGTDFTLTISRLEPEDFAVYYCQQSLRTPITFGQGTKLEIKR	kon	919000

These entries and their values trace back to patent US20210284749A1.
